measuredTarget: RORγ (Homo sapiens, UniProt P51449)
Construct: Jurkat pEx/Gal/hRORγCLBD/HYG pG5luc/blast
Sequence (P51449 269-508 limits assumed): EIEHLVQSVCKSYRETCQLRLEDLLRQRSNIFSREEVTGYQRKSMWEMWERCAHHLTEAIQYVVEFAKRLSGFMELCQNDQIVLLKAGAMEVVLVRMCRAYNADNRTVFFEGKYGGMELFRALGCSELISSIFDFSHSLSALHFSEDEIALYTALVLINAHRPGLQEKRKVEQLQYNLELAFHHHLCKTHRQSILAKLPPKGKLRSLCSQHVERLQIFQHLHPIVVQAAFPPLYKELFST
experimentalDetails: RORγ Gal4 reporter assay (Gal4-luciferase, Jurkat cells)
conditionLabel: Jurkat cells over-expressing RORγ, overnight incubation
propertyMeasured: IC50 (nM)

a: O=C(N[C@@H]1CC[C@@]2(S(=O)(=O)c3ccc(F)cc3)c3ccc(C(F)(C(F)(F)F)C(F)(F)F)nc3CC[C@@H]12)C1CCS(=O)(=O)CC1
b: CC(C)(O)C(=O)N[C@@H]1CC[C@@]2(S(=O)(=O)c3ccc(F)cc3)c3ccc(C(F)(C(F)(F)F)C(F)(F)F)nc3CC[C@@H]12
input: # compare IC50 for a vs b ; return the one with the smaller value Write the label of whichever entry you select.
output: b

* * *

measuredTarget: human sodium channel gene SCN5A ion channel (Homo sapiens, UniProt Q14524)
Sequence (Q14524 whole entry): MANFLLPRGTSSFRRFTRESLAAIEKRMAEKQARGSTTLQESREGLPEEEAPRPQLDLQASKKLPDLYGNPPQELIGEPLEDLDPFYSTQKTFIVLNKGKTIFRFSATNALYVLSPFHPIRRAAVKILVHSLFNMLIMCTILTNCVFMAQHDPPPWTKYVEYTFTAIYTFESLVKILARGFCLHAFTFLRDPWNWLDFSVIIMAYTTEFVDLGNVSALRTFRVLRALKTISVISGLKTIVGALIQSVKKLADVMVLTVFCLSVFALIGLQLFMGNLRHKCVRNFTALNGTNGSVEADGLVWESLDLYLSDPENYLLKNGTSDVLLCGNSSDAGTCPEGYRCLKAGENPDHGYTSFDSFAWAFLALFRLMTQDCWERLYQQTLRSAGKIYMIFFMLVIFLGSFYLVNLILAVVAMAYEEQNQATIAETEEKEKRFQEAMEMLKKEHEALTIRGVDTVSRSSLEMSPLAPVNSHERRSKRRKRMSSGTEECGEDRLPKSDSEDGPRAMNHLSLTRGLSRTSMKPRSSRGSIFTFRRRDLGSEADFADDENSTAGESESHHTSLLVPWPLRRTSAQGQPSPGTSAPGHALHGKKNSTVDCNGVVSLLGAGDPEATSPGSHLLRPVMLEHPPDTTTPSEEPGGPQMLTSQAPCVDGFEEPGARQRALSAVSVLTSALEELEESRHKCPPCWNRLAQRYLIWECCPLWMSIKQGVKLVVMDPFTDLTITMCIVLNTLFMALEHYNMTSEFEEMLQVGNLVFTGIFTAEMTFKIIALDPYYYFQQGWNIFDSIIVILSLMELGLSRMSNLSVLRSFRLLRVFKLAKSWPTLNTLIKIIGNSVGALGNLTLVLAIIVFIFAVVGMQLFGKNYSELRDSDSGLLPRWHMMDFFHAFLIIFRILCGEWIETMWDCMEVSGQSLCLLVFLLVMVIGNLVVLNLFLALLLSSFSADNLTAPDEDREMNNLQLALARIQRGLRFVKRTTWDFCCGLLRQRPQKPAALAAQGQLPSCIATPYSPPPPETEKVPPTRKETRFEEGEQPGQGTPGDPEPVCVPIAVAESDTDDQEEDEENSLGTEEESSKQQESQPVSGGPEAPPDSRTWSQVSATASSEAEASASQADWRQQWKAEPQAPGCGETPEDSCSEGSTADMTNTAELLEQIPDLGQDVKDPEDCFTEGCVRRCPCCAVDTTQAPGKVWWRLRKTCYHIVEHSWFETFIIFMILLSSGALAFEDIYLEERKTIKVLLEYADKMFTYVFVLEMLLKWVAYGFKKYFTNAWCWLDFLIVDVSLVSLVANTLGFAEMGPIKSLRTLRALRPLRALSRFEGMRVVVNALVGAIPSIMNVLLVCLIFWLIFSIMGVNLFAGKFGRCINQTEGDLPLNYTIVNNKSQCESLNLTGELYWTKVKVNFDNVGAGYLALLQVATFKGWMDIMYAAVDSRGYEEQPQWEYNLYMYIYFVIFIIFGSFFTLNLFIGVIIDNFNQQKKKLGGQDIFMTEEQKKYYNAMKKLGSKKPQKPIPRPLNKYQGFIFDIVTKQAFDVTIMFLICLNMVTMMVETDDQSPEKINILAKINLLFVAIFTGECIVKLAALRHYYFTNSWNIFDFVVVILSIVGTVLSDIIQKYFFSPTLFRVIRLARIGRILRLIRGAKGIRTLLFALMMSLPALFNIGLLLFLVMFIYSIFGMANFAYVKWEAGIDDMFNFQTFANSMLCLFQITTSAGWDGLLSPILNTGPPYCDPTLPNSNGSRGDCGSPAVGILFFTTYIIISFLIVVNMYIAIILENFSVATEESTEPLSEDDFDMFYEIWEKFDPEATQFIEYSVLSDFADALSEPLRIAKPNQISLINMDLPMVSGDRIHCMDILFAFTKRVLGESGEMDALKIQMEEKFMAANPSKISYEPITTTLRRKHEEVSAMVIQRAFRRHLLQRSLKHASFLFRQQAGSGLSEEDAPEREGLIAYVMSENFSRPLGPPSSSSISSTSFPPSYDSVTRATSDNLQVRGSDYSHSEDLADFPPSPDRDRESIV
experimentalDetails: Patch clamp assay for sodium channel recording
conditionLabel: HEK 293 cells expressing SCN5A, whole-cell patch clamp; read-out: Na Channel
pIC50: −log10 of the molar value.
propertyMeasured: pIC50

input: Need pIC50 of "C[C@@](O)(CS(C)(=O)=O)C(=O)N[C@@H]1CC[C@@]2(S(=O)(=O)c3ccc(F)cc3)c3ccc(C(F)(C(F)(F)F)C(F)(F)F)nc3CC[C@@H]12" , thanks.
output: < 4.52
